tested on: Zymoseptoria tritici; test: Leaf blotch of wheat (SEPTTR) disease control on wheat seedlings; assay type: in vivo; conditions: high volume application, 100 ppm, 1 day protectant
metric: SEPTTR 1DP disease control rating, HV activity at 100 ppm

molecule | result
COc1ccnc(C(=O)NC(C)C(=O)OC(C)C(Oc2ccc(F)cc2)c2ccccc2)c1O (centres unmarked) | A (> 80)
CCCOC(c1ccccc1)C(C)OC(=O)C(C)NC(=O)c1nccc(OC)c1O (centres unmarked) | B (≤ 80)
COc1ccnc(C(=O)N[C@@H](C)C(=O)O[C@@H](C)[C@H](OCC2CC2)C2CCCC2)c1O | B (≤ 80)
COc1ccnc(C(=O)N[C@@H](C)C(=O)O[C@@H](C)[C@H](Oc2ccc(C)cc2Cl)C2CCCC2)c1O | D
CCC[C@@H](Oc1ccc(C)cc1)[C@H](C)OC(=O)[C@H](C)NC(=O)c1nccc(OC)c1O | B (≤ 80)
CC[C@H](OC(=O)[C@H](C)NC(=O)c1nccc(OC)c1O)[C@H](Oc1ccccc1)C(C)C | B (≤ 80)
COc1ccnc(C(=O)NCC(=O)O[C@@H](C)[C@H](Oc2ccccc2)C(C)C)c1O | D
COc1ccnc(C(=O)NC(C)C(=O)OC(C)C(Oc2ccccc2)c2ccc(-c3ccccc3)cc2)c1O (centres unmarked) | A (> 80)

====

test system: Zymoseptoria tritici; assay: Leaf blotch of wheat (SEPTTR) disease control on wheat seedlings; type: in vivo; settings: HV application at 100 ppm; 3 Day Curative; wheat leaf blotch
metric: SEPTTR 3DC disease control rating, HV activity

molecule | result
COc1ccnc(C(=O)N[C@@H](C)C(=O)O[C@@H](C)[C@H](Oc2ccc(Cl)cc2Cl)C(C)C)c1O | B (≤ 80)
CCC(CC)[C@@H](Oc1ccccc1)[C@H](C)OC(=O)CNC(=O)c1nccc(OC)c1O | A (> 80)
CCC(Cc1ccccc1)C(OCC(C)C)C(C)OC(=O)CNC(=O)c1nccc(OC)c1OCOC(C)=O (stereo not shown) | D
COc1ccnc(C(=O)NC(C)C(=O)OC(C)C(Oc2cccc3ccccc23)C(C)C)c1O (stereo not shown) [Cmpd 397] | B (≤ 80)
COc1ccnc(C(=O)NC(C)C(=O)OC(C)C(Oc2cccc(Cl)c2)C(C)C)c1O (stereo not shown) | D
CCC(CC)[C@@H](Oc1ccccc1Cl)[C@H](C)OC(=O)[C@@H](NC(=O)c1nccc(OC)c1O)C(C)C | B (≤ 80)
CCC(C)C(NC(=O)c1nccc(OC)c1O)C(=O)OC(C)C(Oc1ccc(C(F)(F)F)cc1)C(C)C (stereo not shown) | B (≤ 80)
COc1ccnc(C(=O)NC(C)C(=O)OC(C)C(Oc2cc(F)ccc2F)C(C)C)c1O (stereo not shown) | A (> 80)
COc1ccnc(C(=O)N[C@H](C)C(=O)O[C@H](C)[C@@H](Oc2ccccc2)c2ccccc2)c1O | B (≤ 80)
COc1ccnc(C(=O)N[C@@H](C)C(=O)O[C@@H](C)[C@H](Oc2ccccc2)C(C)C)c1O | A (> 80)
COc1ccnc(C(=O)N[C@@H](C)C(=O)O[C@@H](C)[C@H](Oc2ccccc2)C2CCCC2)c1O | B (≤ 80)
COc1ccnc(C(=O)N[C@@H](C)C(=O)O[C@@H](C)[C@@H](Cc2ccccc2)OCC(C)C)c1O | B (≤ 80)
CCC(CC)[C@@H](Oc1cccc(-c2ccccc2)c1)[C@H](C)OC(=O)[C@@H](NC(=O)c1nccc(OC)c1O)C(C)C | D
CC(NC(=O)c1nccc(Cl)c1O)C(=O)OC(C)C(Oc1ccccc1)C(C)C (stereo not shown) | D
CCCOC(CC)C(Oc1ccccc1)C(C)OC(=O)C(C)NC(=O)c1nccc(OC)c1OCOC(C)=O (stereo not shown) | A (> 80)
CCCOC(C(C)C)C(C)OC(=O)C(C)NC(=O)c1nccc(OC)c1O (stereo not shown) | D
